Tested on: Escherichia coli ATCC 25922
Format: cell-based
Settings: ATCC 25922, 24 h
Ends that are not written are not given here.

| substance | MIC E. coli ATCC 25922 |
| --- | --- |
| RWQWRWQWR [(LfcinB 21–25)Pal] | 12.5 µM |
| RRWQWR-NH2 [LfcinB 20–25, reference compound] | >200 µM |
| FKCRRWQWRMKKL-NH2 [LfcinB 17–29] | 200 µM |
| FKCRRWQWRMK-NH2 [LfcinB 17–27] | 100 µM |
| RRWQWRMKKLGA [LfcinB 20–31] | 200 µM |
| FKCRRWQWRMKKLG-NH2 [LfcinB 17–30] | 200 µM |
| CRRWQWRMKKLGA-NH2 [LfcinB 19–31] | 100 µM |
| FKCRRWQWR-NH2 [LfcinB 17–25] | 100 µM |
| FKCRRWQWRMKK-NH2 [LfcinB 17–28] | 200 µM |
